Target: human μ-opiate receptor (Homo sapiens)
Construct: purchased NEN, Zaventem, Belgium RB-HOM; host or cells: CHO-K1 cells (membrane preparation)
Sequence (P35372 whole entry): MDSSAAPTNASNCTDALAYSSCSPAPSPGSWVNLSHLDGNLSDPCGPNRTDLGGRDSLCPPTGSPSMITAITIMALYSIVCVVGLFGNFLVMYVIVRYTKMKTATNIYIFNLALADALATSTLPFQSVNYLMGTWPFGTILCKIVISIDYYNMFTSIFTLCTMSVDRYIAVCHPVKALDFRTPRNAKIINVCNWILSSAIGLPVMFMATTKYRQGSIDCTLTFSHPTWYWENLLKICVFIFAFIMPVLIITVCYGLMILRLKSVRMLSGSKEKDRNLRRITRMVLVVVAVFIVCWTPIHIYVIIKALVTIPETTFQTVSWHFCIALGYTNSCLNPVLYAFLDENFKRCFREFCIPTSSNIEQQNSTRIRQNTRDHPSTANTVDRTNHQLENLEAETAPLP
Experiment: μ-opiate receptor binding assay with [3H] naloxone (WGA-SPA beads)
Settings: 1 μmol/l test substance; 1 nmol/l [3H] naloxone; CHO-K1 cell membranes expressing human μ-opiate receptor
measured-parameter: % Inhibition (μ) at 1 μM (%)
All answers are understood in %, so give the number only.

Q) Test system human μ-opiate receptor (Homo sapiens); read-out % Inhibition (μ) at 1 μM; what value for CN(C)C1(c2ccccc2)CCN(C(=O)C2CN(Cc3cccc4[nH]ccc34)c3ccccc32)CC1 (centres unmarked) [Example 175] ?
A) 70

Q) Test system human μ-opiate receptor (Homo sapiens); read-out % Inhibition (μ) at 1 μM; what value for CCCCC1(N(C)C)CCN(CCN(C)Cc2ccc3cc[nH]c3c2)CC1 [Example 144] ?
A) 90

Q) Test system human μ-opiate receptor (Homo sapiens); read-out % Inhibition (μ) at 1 μM; what value for CCCCC1(N(C)C)CCN(CCN(C)C(=O)Cc2c[nH]c3cc(F)ccc23)CC1 [Example 44] ?
A) 92

Q) Test system human μ-opiate receptor (Homo sapiens); read-out % Inhibition (μ) at 1 μM; what value for COc1ccc2[nH]cc(CNCCN3CCC(c4cccs4)(N(C)C)CC3)c2c1 [Example 76] ?
A) 99

Q) Test system human μ-opiate receptor (Homo sapiens); read-out % Inhibition (μ) at 1 μM; what value for CC(C)c1ccc2c(CN(C)CCN3CCC(c4ccccc4)(N(C)C)CC3)c[nH]c2c1 [Example 73] ?
A) 95

Q) Test system human μ-opiate receptor (Homo sapiens); read-out % Inhibition (μ) at 1 μM; what value for CCCCC1(N(C)C)CCN(CCN(C)Cc2cccc3cc[nH]c23)CC1 [Example 157] ?
A) 96

Q) Test system human μ-opiate receptor (Homo sapiens); read-out % Inhibition (μ) at 1 μM; what value for CCCCC1(N(C)C)CCN(CCN(C)Cc2cccc3[nH]ccc23)CC1 [Example 160] ?
A) 87

Q) Test system human μ-opiate receptor (Homo sapiens); read-out % Inhibition (μ) at 1 μM; what value for CN(Cc1ccc2cc[nH]c2c1)C(C(=O)N1CCC(c2cccs2)(N(C)C)CC1)c1ccccc1 (centres unmarked) [Example 150] ?
A) 54
